target: HIV-1 JR-CSF Env N262A (HIV-1 JR-CSF) (UniProt P20871); experiment: cell-based or functional assay
OUTCOME_MEASURE: Fold IC50 increase relative to wild-type
The reply should consist of the numeric value with the unit placed after it.

BINDER	Fold IC50 increase relative to wild-type
PGT-135 (antibody, V domains shown) VH: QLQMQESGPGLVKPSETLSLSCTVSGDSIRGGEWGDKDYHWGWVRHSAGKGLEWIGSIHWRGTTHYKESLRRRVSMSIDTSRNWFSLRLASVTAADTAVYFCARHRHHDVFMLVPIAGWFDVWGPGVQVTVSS VL: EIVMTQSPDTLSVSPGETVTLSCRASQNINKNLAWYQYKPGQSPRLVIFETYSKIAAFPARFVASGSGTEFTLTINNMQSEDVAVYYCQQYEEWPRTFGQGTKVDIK	2.1 fold
PGT-128 (antibody, V domains shown) VH: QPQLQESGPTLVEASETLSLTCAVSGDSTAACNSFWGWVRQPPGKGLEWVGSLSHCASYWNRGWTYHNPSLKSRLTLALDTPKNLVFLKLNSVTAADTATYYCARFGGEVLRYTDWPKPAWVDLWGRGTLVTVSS VL: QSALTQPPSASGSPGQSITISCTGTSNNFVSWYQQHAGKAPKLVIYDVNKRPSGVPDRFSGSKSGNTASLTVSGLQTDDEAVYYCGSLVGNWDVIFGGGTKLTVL	1.6 fold
PGT-127 (antibody, V domains shown) VH: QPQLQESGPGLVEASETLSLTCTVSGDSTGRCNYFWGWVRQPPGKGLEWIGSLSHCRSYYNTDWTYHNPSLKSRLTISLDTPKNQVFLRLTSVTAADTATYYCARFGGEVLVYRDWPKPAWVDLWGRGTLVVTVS VL: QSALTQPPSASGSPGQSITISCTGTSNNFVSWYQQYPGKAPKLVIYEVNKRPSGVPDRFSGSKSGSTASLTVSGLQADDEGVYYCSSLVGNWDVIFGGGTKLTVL	1.4 fold
PGT-126 (antibody, V domains shown) VH: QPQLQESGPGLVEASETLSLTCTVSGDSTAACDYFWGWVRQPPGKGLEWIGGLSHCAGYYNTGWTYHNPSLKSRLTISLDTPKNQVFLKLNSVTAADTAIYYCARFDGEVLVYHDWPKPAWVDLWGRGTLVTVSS VL: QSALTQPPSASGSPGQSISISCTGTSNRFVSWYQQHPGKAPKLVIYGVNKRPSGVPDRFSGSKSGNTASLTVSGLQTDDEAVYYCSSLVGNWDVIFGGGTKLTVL	1 fold

Please turn your attention to the following entry.
Qu. Identify measured Fold IC50 increase relative to wild-type associated with PGT-130 (antibody, V domains shown) VH: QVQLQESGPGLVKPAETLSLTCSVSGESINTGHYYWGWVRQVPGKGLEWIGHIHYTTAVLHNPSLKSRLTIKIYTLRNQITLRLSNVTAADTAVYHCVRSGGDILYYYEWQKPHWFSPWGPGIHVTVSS VL: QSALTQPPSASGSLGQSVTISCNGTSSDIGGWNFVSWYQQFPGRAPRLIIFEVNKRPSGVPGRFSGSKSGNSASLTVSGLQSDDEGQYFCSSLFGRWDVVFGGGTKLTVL
Ans. 0.7 fold

Numbers sourced from patent US20200024330A1.
